target_under_test: Kdr (Homo sapiens, UniProt P35968)
Construct: Kinases are expressed as either kinase domains or full length constructs; made in house
Sequence (P35968 20-1356, species assumed): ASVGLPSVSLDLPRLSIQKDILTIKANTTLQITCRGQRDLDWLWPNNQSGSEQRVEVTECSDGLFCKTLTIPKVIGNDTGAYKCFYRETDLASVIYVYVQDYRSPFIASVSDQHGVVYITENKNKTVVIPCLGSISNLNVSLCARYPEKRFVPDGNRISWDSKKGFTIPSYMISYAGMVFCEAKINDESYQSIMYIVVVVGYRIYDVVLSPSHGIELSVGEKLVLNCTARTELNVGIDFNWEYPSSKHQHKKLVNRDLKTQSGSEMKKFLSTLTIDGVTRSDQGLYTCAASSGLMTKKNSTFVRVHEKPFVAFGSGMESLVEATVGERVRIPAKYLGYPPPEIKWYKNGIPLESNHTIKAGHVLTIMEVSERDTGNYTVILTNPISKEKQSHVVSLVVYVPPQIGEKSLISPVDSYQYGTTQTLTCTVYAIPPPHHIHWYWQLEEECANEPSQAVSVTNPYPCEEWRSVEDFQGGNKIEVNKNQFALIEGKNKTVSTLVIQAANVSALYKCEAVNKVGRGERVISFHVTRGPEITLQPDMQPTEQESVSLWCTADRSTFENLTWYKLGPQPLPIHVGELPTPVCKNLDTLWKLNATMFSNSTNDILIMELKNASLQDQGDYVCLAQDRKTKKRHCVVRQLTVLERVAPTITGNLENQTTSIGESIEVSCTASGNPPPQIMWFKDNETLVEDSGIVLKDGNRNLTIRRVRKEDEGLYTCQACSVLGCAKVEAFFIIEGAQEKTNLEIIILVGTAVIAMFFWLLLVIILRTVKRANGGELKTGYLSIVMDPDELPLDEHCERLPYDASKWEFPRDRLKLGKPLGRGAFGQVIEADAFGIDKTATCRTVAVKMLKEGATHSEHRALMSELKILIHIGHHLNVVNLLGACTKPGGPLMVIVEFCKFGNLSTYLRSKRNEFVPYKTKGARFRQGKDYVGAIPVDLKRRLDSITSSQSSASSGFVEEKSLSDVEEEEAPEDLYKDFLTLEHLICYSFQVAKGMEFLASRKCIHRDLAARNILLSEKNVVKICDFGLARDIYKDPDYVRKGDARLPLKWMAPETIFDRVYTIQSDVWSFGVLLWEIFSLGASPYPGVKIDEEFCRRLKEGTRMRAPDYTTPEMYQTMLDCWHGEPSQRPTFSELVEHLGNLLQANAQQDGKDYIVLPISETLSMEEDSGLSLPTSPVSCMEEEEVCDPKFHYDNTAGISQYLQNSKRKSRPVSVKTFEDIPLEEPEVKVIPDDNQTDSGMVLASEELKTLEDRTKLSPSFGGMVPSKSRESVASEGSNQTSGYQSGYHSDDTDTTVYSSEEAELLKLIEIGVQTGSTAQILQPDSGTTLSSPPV
experimental_protocol: Kinase inhibition assay (33P transfer), Kdr
Assay type: biochemical
measurement_setup: Table 3; read-out: KDR-1
measured_endpoint: IC50

Solved entries (count: 2):
[[record]]
test_smiles = "COc1ccc(Nc2ncnc(Nc3ccc(OCc4ccccc4)cc3)n2)cc1"
target_under_test = "Kdr (Homo sapiens, UniProt P35968)"
measured_endpoint = "IC50"
result = "1 to 6.01 µM"

[[record]]
test_smiles = "Clc1cc(Cl)cc(Nc2ncnc(-n3cccc3)n2)c1"
target_under_test = "Kdr (Homo sapiens, UniProt P35968)"
measured_endpoint = "IC50"
result = "1.31 to 7.84 µM"


[Q] Which IC50 is reported for this compound? COc1cc(Nc2ncnc(-n3c(Nc4ccc(C#N)cc4)nc4ccccc43)n2)cc(OC)c1OC
[A] 4.85 to 7.08 µM
